# experimental_protocol: CHI Log D procedure
# Type: physicochemical
# setup_conditions: pH 7.4, CHI Log D
# chromatographic logD values compiled below
Enter the number alone.

Some solved entries appear below for comparison.
Return reported chromatographic logD; argument: CC[C@H](C)[C@@H]1NC(=O)[C@H](CC(=O)O)NC(=O)[C@]2(CC=CCCCC3(CCCC=CCCCCCC[C@@](C)(C(=O)N[C@@H](Cc4ccccc4)C(=O)N[C@@H](Cc4csc5ccccc45)C(=O)N[C@@H](CCC(N)=O)C(N)=O)NC(=O)[C@H](CCC(N)=O)NC(=O)[C@H](Cc4ccc(-c5ccccc5)cc4)NC(=O)[C@H](C)NC(=O)[C@H](C)NC(=O)[C@H](CCC(=O)O)NC(=O)[C@H](CC(=O)O)NC3=O)NC1=O)CCCN2C(C)=O (some centres unmarked)
2.58

Return reported chromatographic logD; argument: CC(=O)N1CCC[C@]12CC=CCCCC1(CCCC=CCCCCCC[C@@](C)(C(=O)N[C@@H](Cc3ccccc3)C(=O)N[C@@H](Cc3c[nH]c4ccccc34)C(=O)N[C@@H](CCC(N)=O)C(N)=O)NC(=O)[C@H](C(C)C)NC(=O)[C@H](Cc3ccccc3)NC(=O)[C@H](C)NC(=O)[C@H](C)NC(=O)[C@H](Cc3ccc(F)cc3)NC(=O)[C@H](CC(=O)O)NC1=O)NC(=O)[C@H](C)NC(=O)[C@H](CC(=O)O)NC2=O (some centres unmarked)
2.89

Return reported chromatographic logD; argument: CC(=O)N1CCC[C@]12CC=CCCCC1(CCCC=CCCCOC(=O)N3CC[C@@](C(=O)N[C@@H](Cc4ccccc4Cl)C(=O)N[C@@H](Cc4csc5ccccc45)C(=O)N[C@@H](CO)C(N)=O)(C3)NC(=O)[C@H]([C@@H](C)O)NC(=O)[C@H](Cc3ccccc3)NC(=O)[C@H](C)NC(=O)[C@H](C)NC(=O)[C@H](CC(N)=O)NC(=O)[C@H](CC(=O)O)NC1=O)NC(=O)[C@H](CC(C)(C)C)NC(=O)[C@H](CC(=O)O)NC2=O (some centres unmarked)
2.38

Next:
Return reported chromatographic logD; argument: "CC[C@H](C)[C@H](NC(=O)[C@H](CC(=O)O)NC(=O)[C@H](C)NC(C)=O)C(=O)N[C@]1(C)CCN(C)C(=O)OCC=CCCCCC[C@@](C)(C(=O)N[C@@H](Cc2ccccc2)C(=O)N[C@@H](Cc2c[nH]c3ccccc23)C(=O)N[C@@H](C)C(N)=O)NC(=O)[C@H](CCC(N)=O)NC(=O)[C@H](Cc2ccccc2)NC(=O)[C@H](C)NC(=O)[C@H](C)NC(=O)[C@H](CCC(=O)O)NC(=O)[C@H](CC(=O)O)NC1=O"
1.32

Return reported chromatographic logD; argument: CC(=O)N1CCC[C@]12CC=CCCCC1(CCCC=CCCCOC(=O)N3CC[C@@](C(=O)N[C@@H](Cc4ccccc4Cl)C(=O)N[C@@H](Cc4csc5ccccc45)C(=O)N[C@@H](CO)C(N)=O)(C3)NC(=O)[C@H]([C@@H](C)O)NC(=O)[C@H](Cc3ccccc3)NC(=O)[C@H](C)NC(=O)[C@H](C)NC(=O)[C@H](CC(=O)O)NC(=O)[C@H](CC(=O)O)NC1=O)NC(=O)[C@H](Cc1ccccc1)NC(=O)[C@H](CC(=O)O)NC2=O (some centres unmarked)
2.29
